target: MmTPC1 Leu11Ala/Ile12Ala (plasma membrane-targeting, considered as the wild type channel) (Mus musculus, UniProt Q9EQJ0, I12A/L11A/R540Q); experiment: inside-out patch clamp, HEK293 cells
measured.quantity: EC50

I have this compound here, CCCCCCCC(=O)OC[C@H](COP(=O)(O)O[C@@H]1[C@H](O)[C@H](OP(=O)(O)O)[C@@H](O)[C@H](OP(=O)(O)O)[C@H]1O)OC(=O)CCCCCCC [PtdIns(3,5)P2] , and I need its recorded EC50.
~145 nM
